Quick reference: hERG current change (%, negative = inhibition) at 10uM of the listed items.
Molecular target: human ether-à-go-go-related gene (hERG) potassium channel (human, UniProt Q12809);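 note: peak tail current of the secondary pulse compared with the same well before compound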
Sequence (Q12809 whole entry, looked up): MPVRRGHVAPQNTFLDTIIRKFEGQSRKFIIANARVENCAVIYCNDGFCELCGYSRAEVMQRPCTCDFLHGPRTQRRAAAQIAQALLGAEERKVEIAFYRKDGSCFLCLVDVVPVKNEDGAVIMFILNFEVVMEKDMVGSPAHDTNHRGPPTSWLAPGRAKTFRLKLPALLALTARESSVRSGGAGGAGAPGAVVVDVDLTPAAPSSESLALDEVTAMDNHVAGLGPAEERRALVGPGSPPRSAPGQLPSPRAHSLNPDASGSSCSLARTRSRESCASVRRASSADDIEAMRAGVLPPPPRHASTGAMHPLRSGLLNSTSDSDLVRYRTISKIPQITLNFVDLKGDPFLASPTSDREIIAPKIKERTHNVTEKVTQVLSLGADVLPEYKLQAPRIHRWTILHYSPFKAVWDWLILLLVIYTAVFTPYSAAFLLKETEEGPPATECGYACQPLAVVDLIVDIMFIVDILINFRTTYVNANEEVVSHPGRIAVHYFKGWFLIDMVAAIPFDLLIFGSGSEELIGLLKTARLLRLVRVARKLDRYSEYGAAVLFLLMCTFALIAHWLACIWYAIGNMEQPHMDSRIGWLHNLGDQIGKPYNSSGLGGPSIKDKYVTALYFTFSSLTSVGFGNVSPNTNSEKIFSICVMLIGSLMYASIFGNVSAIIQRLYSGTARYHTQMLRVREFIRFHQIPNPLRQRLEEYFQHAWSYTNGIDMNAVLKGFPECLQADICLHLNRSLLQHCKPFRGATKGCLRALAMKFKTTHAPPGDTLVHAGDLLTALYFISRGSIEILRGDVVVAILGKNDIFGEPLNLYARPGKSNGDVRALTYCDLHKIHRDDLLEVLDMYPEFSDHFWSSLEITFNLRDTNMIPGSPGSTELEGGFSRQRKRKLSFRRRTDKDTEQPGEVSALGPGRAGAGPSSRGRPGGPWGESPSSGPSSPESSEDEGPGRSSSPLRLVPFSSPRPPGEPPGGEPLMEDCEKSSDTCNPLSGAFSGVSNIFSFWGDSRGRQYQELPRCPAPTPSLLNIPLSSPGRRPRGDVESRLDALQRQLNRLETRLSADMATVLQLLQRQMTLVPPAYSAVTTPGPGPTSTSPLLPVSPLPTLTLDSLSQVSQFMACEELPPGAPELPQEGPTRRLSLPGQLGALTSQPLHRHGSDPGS
Assay: primary screen, population patch clamp on CHO cells stably expressing hERG; higher = less effect of the substance
Screen size: about 310,000 compounds; about 14,000 (4.5%) showed an effect of 50% or more. Effects have a minus sign here. The sample as a whole holds a higher share of strong results than the screen did.
The reply should be a number in %, with the unit left off.

CCCN1CCC(=O)N([C@H](CO)Cc2ccccc2)CC1 : 0.476
Cc1oc(-c2ccccc2F)nc1CS(=O)(=O)CC(=O)NCc1ccco1 : -27.3
CCCCCCCN1CCC(=O)N([C@H](CO)c2ccccc2)CC1 : -63.7
CCOC(=O)c1cnc2c(C)c(Cl)ccc2c1NCCCN1CCOCC1 : -49.2
CCOC(=O)c1cnc2c(cnn2C)c1NCCC#N : -7.43

# input Any idea what its hERG current change (%, negative = inhibition) at 10uM is? The compound is CC(C)C[C@@H](CO)N1CCN(CC(C)C)CCC1=O
# output 4.64

# input Reported hERG current change (%, negative = inhibition) at 10uM, compound Cc1cccc(NS(=O)(=O)c2cccc3cccnc23)n1 : ____
# output 4.27

# input # get_value(readout='hERG current change (%, negative = inhibition) at 10uM', item= CC(C)CN1CCC(=O)N(CCO)CC1 )
# output 1.33
